Test system: Aβ42 production
Experiment: Suppressive activity of Aβ42 production in neuroblast expressing human APP695 (ELISA of secreted Aβ42)
Format: cell-based
Conditions: secreted Aβ42, SH-SY5Y-APPwt cells, 24 hours
pIC50: −log10 of the molar value.
readout-label: pIC50

- compound: "COc1cc(NC(=O)Cc2ccc(Cl)c(Cl)c2)ccc1-n1cnc(C)c1 [Compound E8]"
  reported-measurement: 5.96
- compound: "COc1cc(N2CCC(NC(=O)c3cccc(Cl)c3)C2=O)ccc1-n1cnc(C)c1 (stereo not shown) [Compound 201]"
  reported-measurement: 6.10
- compound: "COc1cc(N2CCC(C(c3ccccc3)c3ccccc3)C2=O)ccc1-n1cnc(C)c1 (stereo not shown) [Compound 259]"
  reported-measurement: 6.15

P: COc1cc(NS(=O)(=O)c2ccc(Cl)c(Cl)c2)ccc1-n1cnc(C)c1 [Compound 1]
Q: COc1cc(NS(=O)(=O)Cc2cccc(Cl)c2)ccc1-n1cnc(C)c1 [Compound 38]
R: COc1cc(N2CCC(NCc3ccc(Cl)cc3)C2=O)ccc1-n1cnc(C)c1 (stereo not shown) [Compound 231]
Inquiry: Write the entries in order, lowest recorded pIC50 first. Returns: the labels listed in the requested order.
Reply text: Q, R, P

All values here come from patent US20120135997A1.
